Source listed as patent US20120264685A1.

- experiment: Stability in simulated intestinal fluid
- Assay type: in vitro ADME
- studyConditions: 2 μM, 37° C., pH 7.5, 24 h
Where a SMILES comes first, the peptide text is derived from it. [ ]: non-standard residue; d: D form. ξ: configuration not given here. ξαMeBip(2'-Et,4'-OMe) = CCc1cc(OC)ccc1-c1ccc(CC(C)(N)C(=O)O)cc1; ξαMePhe(2,6-F2) = CC(N)(Cc1c(F)cccc1F)C(=O)O; ξαMe(hhPhe) = CC(N)(CCCc1ccccc1)C(=O)O; ξαMePhe(2-F) = CC(N)(Cc1ccccc1F)C(=O)O; ξhhPhe = NC(CCCc1ccccc1)C(=O)O; ξαMeD = CC(N)(CC(=O)O)C(=O)O; Aib = CC(C)(N)C(=O)O
propertyName: % degradation in 24 h when incubated with simulated intestinal fluid (%)
Kindly answer with a numeric value in %, unit omitted.

Inquiry: Could you please provide reported % degradation in 24 h when incubated with simulated intestinal fluid for CCc1cc(OC)ccc1-c1ccc(CC(C)(NC(=O)C(C)(CC(=O)O)NC(=O)[C@H](CO)NC(=O)[C@@H](NC(=O)C(C)(Cc2ccccc2F)NC(=O)[C@@H](NC(=O)CNC(=O)[C@H](CCC(N)=O)NC(=O)C(C)(C)NC(=O)[C@H](Cc2c[nH]cn2)NC(=O)[C@@H](N)C(C)C)[C@@H](C)O)[C@@H](C)O)C(=O)NC(C)(CCCc2ccccc2)C(N)=O)cc1 (some centres unmarked) [compound 191] (H-VH[Aib]QGT[ξαMePhe(2-F)]TS[ξαMeD][ξαMeBip(2'-Et,4'-OMe)][ξαMe(hhPhe)]-NH2) ? Thanks!
Reply text: 55

Inquiry: Give a short answer stating reported % degradation in 24 h when incubated with simulated intestinal fluid for CCc1cc(OC)ccc1-c1ccc(CC(C)(NC(=O)[C@H](CC(=O)O)NC(=O)[C@H](CO)NC(=O)[C@@H](NC(=O)C(C)(Cc2c(F)cccc2F)NC(=O)[C@@H](NC(=O)CNC(=O)[C@H](CCC(=O)O)NC(=O)C(C)(C)NC(=O)[C@H](Cc2c[nH]cn2)NC(=O)[C@@H](N)C(C)C)[C@@H](C)O)[C@@H](C)O)C(=O)NC(CCCc2ccccc2)C(N)=O)cc1 (some centres unmarked) [compound 31] (H-VH[Aib]EGT[ξαMePhe(2,6-F2)]TSD[ξαMeBip(2'-Et,4'-OMe)][ξhhPhe]-NH2) .
Reply text: 41

* * *

- experimentalTarget: DPP IV enzyme (Homo sapiens, UniProt P27487)
- Sequence (P27487 whole entry, species assumed): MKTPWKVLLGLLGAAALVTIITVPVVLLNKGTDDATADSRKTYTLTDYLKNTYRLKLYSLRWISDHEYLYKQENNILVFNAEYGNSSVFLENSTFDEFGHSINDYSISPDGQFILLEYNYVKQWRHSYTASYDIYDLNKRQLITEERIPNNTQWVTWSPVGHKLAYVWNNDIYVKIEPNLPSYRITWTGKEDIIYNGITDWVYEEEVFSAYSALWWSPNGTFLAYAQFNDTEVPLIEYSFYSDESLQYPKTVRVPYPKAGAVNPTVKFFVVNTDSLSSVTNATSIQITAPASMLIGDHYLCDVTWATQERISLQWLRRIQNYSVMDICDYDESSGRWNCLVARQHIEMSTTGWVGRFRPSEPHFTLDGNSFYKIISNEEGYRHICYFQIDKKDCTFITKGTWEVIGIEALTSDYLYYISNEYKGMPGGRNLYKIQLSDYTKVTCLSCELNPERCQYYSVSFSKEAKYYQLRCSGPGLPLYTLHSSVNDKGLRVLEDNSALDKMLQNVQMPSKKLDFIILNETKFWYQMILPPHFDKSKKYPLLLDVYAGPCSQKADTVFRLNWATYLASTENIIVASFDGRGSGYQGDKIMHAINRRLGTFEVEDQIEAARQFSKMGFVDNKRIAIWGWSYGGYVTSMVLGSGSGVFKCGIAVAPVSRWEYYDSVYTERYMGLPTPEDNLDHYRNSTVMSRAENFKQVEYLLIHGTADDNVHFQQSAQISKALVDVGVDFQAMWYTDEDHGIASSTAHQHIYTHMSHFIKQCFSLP
- experiment: Stability against DPP IV enzyme
- Type: in vitro ADME
- studyConditions: 2 μM, 37° C., 24 h
Where a SMILES comes first, the peptide text is derived from it. [ ]: non-standard residue; d: D form. ξ: configuration not given here. ξαMeBip(2'-Et,4'-OMe) = CCc1cc(OC)ccc1-c1ccc(CC(C)(N)C(=O)O)cc1; ξαMe(hhPhe) = CC(N)(CCCc1ccccc1)C(=O)O; ξαMeP = CC1(C(=O)O)CCCN1
propertyName: % degradation in 24 h when incubated with DPP-IV enzyme (%)
State the answer as a number, implicitly in %.

Inquiry: Specify measured % degradation in 24 h when incubated with DPP-IV enzyme for CCc1cc(OC)ccc1-c1ccc(CC(C)(NC(=O)[C@H](CC(=O)O)NC(=O)[C@H](CO)NC(=O)[C@@H](NC(=O)[C@H](Cc2ccccc2)NC(=O)[C@@H](NC(=O)CNC(=O)[C@H](CCC(=O)O)NC(=O)C2(C)CCCN2C(=O)[C@H](Cc2c[nH]cn2)NC(=O)[C@@H](N)C(C)C)[C@@H](C)O)[C@@H](C)O)C(=O)NC(C)(CCCc2ccccc2)C(N)=O)cc1 (stereo partly shown) [compound 140] (H-VH[ξαMeP]EGTFTSD[ξαMeBip(2'-Et,4'-OMe)][ξαMe(hhPhe)]-NH2) .
Reply text: 86
